- TARGET_ENTITY: F876L mutant Androgen Receptor (AR-F876L) (Homo sapiens (Human), UniProt P10275, F877L)
- Sequence (P10275 whole entry F877L): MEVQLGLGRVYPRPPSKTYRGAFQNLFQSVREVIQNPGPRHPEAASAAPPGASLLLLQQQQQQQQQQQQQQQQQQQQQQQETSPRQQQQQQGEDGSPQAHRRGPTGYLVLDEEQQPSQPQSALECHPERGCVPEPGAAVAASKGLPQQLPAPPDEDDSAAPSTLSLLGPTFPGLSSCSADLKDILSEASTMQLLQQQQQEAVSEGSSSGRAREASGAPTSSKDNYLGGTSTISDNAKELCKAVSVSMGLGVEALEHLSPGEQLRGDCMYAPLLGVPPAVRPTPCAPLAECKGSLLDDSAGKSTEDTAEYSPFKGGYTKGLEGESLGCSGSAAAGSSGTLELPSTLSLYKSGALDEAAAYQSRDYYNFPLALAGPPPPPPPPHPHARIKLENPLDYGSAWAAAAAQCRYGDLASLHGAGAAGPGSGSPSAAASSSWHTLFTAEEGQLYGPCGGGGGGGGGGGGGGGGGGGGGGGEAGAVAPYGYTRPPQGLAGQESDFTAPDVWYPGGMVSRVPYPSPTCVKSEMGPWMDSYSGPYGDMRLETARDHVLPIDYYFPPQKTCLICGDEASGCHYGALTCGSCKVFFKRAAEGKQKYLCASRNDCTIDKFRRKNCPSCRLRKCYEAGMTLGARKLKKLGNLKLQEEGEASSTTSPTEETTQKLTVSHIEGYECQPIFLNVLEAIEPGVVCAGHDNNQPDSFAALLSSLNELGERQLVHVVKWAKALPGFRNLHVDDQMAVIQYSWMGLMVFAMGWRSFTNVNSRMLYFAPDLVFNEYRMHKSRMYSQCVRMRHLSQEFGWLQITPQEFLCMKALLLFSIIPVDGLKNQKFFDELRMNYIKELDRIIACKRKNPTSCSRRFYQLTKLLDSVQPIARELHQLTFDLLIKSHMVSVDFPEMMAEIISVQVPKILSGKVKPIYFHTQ
- EXPERIMENTAL_DETAILS: LNCaP-AR-F876L ANT reporter assay (antagonist mode)
- Type: cell-based
- RUN_CONDITIONS: maximum % inhibition of R1881 control response over the tested concentration range; read-out: LNCaP-AR-F876L ANT MAX % Inh
ASSAY_ENDPOINT: Emax (%)

{"COMPOUND": "N#Cc1ncc(N2C(=O)C3(CCC3)N(c3ccc(OC4CCN(C5CC5)CC4)cc3)C2=S)cc1C(F)(F)F [Cpd 36]", "Emax (%)": 99.1}
{"COMPOUND": "CN1CCC(Oc2ccc(N3C(=S)N(c4cnc(C#N)c(Cl)c4)C(=O)C34CCC4)cc2)CC1 [Cpd 24]", "Emax (%)": 101}
{"COMPOUND": "N#Cc1ncc(N2C(=O)C3(CCC3)N(c3ccc(OCC4CC(F)(F)CN4)cc3)C2=S)cc1C(F)(F)F (stereo not shown) [Cpd 54]", "Emax (%)": 97.1}
{"COMPOUND": "CCOC(=O)N1CCN(Cc2ccc(N3C(=S)N(c4cnc(C#N)c(C(F)(F)F)c4)C(=O)C34CCC4)cc2)CC1 [Cpd 55]", "Emax (%)": 101}
{"COMPOUND": "N#Cc1ncc(N2C(=O)C3(CCC3)N(c3ccc(OC4CC5(CCN5)C4)cc3)C2=S)cc1C(F)(F)F (stereo not shown) [Cpd 148]", "Emax (%)": 101}
{"COMPOUND": "CN1CCC12CC(Oc1ccc(N3C(=S)N(c4cnc(C#N)c(C(F)(F)F)c4)C(=O)C34CCC4)cc1)C2 (stereo not shown) [Cpd 166]", "Emax (%)": 101}
{"COMPOUND": "CC(C)(C)OC(=O)N1CCC(Cn2cc3cc(N4C(=S)N(c5cnc(C#N)c(C(F)(F)F)c5)C(=O)C45CCC5)ccc3n2)CC1 [Cpd 122]", "Emax (%)": 96.4}

----------
- TARGET_ENTITY: wild-type Androgen Receptor (AR-wt) (Homo sapiens (Human), UniProt P10275)
- Sequence (P10275 whole entry): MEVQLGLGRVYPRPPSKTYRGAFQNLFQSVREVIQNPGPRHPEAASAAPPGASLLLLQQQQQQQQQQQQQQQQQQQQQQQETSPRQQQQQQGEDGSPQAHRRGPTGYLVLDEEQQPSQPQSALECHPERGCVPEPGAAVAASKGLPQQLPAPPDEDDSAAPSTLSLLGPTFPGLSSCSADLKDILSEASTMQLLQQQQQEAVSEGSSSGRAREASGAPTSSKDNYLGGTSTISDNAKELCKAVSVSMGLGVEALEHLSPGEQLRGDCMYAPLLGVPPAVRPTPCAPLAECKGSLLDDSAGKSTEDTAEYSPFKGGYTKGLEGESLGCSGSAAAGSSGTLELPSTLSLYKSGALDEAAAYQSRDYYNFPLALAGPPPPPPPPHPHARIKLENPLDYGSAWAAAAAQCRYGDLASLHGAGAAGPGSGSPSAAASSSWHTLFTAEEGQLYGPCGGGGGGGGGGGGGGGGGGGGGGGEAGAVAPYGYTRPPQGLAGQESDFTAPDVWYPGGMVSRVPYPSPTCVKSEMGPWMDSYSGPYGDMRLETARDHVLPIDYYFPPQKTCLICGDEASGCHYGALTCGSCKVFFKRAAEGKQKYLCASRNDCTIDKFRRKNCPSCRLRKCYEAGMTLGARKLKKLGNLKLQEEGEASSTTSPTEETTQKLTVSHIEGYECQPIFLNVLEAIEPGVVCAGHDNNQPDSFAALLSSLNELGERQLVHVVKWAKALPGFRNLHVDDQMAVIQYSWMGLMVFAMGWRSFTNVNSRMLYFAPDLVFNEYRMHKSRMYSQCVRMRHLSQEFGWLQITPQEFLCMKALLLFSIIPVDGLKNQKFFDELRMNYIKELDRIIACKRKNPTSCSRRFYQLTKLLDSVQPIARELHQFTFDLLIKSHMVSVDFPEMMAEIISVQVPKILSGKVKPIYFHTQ
- EXPERIMENTAL_DETAILS: LNCaP-AR-wt AG reporter assay (agonist mode)
- Type: cell-based
- RUN_CONDITIONS: maximum % stimulation (agonist response) over the tested concentration range; read-out: LNCaP-AR-wt AG MAX % Stim
ASSAY_ENDPOINT: Emax (%)

Examples from the recorded data:
{"COMPOUND": "CN1CC2CC1CC2Oc1ccc(N2C(=S)N(c3cnc(C#N)c(C(F)(F)F)c3)C(=O)C23CCC3)cc1 (stereo not shown)", "ASSAY_ENDPOINT": "Emax", "DISPLAY_UNIT": "%", "ENDPOINT_VALUE": 0.3}
{"COMPOUND": "N#Cc1ncc(N2C(=O)C3(CCC3)N(c3ccc(OC4CCN(C5CC5)CC4)cc3)C2=S)cc1C(F)(F)F", "ASSAY_ENDPOINT": "Emax", "DISPLAY_UNIT": "%", "ENDPOINT_VALUE": -0.2}

[1] CC(=O)N1CC(F)(F)CC1COc1ccc(N2C(=S)N(c3cnc(C#N)c(C(F)(F)F)c3)C(=O)C23CCC3)cc1 (stereo not shown)
[2] C#CCN1CCC(Oc2ccc(N3C(=S)N(c4cnc(C#N)c(C(F)(F)F)c4)C(=O)C34CCC4)cc2)CC1
Query: Between the entries labeled 1 and 2 , whose measured Emax is lower? Answer with the label corresponding to your selection.
Result: 1

----------
- TARGET_ENTITY: F876L mutant Androgen Receptor (AR-F876L) (Homo sapiens (Human), UniProt P10275, F877L)
- EXPERIMENTAL_DETAILS: LNCaP-AR-F876L ANT reporter assay (antagonist mode)
- Type: cell-based
- RUN_CONDITIONS: maximum % inhibition of R1881 control response over the tested concentration range; read-out: LNCaP-AR-F876L ANT MAX % Inh
ASSAY_ENDPOINT: Emax (%)

{"COMPOUND": "COCCn1ncc2cc(N3C(=S)N(c4cnc(C#N)c(C(F)(F)F)c4)C(=O)C34CCC4)ccc21", "DISPLAY_UNIT": "%", "Emax": 102}
{"COMPOUND": "CC(C)(C)OC(=O)N1CCC12CC(Oc1ccc(N3C(=S)N(c4cnc(C#N)c(C(F)(F)F)c4)C(=O)C34CCC4)cn1)C2 (stereo not drawn)", "DISPLAY_UNIT": "%", "Emax": 100}
{"COMPOUND": "CN1CC2CC1CC2Oc1ccc(N2C(=S)N(c3cnc(C#N)c(C(F)(F)F)c3)C(=O)C23CCC3)cn1 (stereo not drawn)", "DISPLAY_UNIT": "%", "Emax": 100}
{"COMPOUND": "N#Cc1ncc(N2C(=O)C3(CCC3)N(c3ccc(OC4CCSCC4)cc3)C2=S)cc1C(F)(F)F", "DISPLAY_UNIT": "%", "Emax": 98.5}
{"COMPOUND": "N#Cc1ncc(N2C(=O)C3(CCC3)N(c3ccc(OCCN4CCC5(CCOC5)CC4)cc3)C2=S)cc1C(F)(F)F", "DISPLAY_UNIT": "%", "Emax": 97.5}
{"COMPOUND": "N#Cc1ncc(N2C(=O)C3(CCC3)N(c3ccc(OC4CCN(CCCF)CC4)cc3)C2=S)cc1C(F)(F)F", "DISPLAY_UNIT": "%", "Emax": 98.4}
{"COMPOUND": "Cn1ncc2cc(N3C(=S)N(c4cnc(C#N)c(Cl)c4)C(=O)C34CCC4)ccc21", "DISPLAY_UNIT": "%", "Emax": 99.3}
{"COMPOUND": "N#Cc1ncc(N2C(=O)C3(CCC3)N(c3ccc(OC4CCN5CCCC5C4)cc3)C2=S)cc1C(F)(F)F (stereo not drawn)", "DISPLAY_UNIT": "%", "Emax": 101}
{"COMPOUND": "COCCN1CCC(Oc2ccc(N3C(=S)N(c4cnc(C#N)c(C)c4)C(=O)C34CCC4)cc2)CC1", "DISPLAY_UNIT": "%", "Emax": 99.5}
{"COMPOUND": "Cc1cc(N2C(=O)C3(CCC3)N(c3ccc(OC4CCN(CCO)CC4)nc3)C2=S)cnc1C#N", "DISPLAY_UNIT": "%", "Emax": 98.9}
{"COMPOUND": "C=CCN1CCC(Oc2ccc(N3C(=S)N(c4cnc(C#N)c(Cl)c4)C(=O)C34CCC4)cn2)CC1", "DISPLAY_UNIT": "%", "Emax": 98.4}
{"COMPOUND": "N#Cc1ncc(N2C(=O)C3(CCC3)N(c3ccc(OC4CCN(CCF)CC4)nc3)C2=S)cc1C(F)(F)F", "DISPLAY_UNIT": "%", "Emax": 97.4}
{"COMPOUND": "N#Cc1ncc(N2C(=O)C3(CCC3)N(c3ccc(OC4CCN(CCO)CC4)nc3)C2=S)cc1Cl", "DISPLAY_UNIT": "%", "Emax": 98.5}
{"COMPOUND": "C=CCN1CCC(Oc2ccc(N3C(=S)N(c4cnc(C#N)c(C(F)(F)F)c4)C(=O)C34CCC4)cn2)CC1", "DISPLAY_UNIT": "%", "Emax": 99.5}
{"COMPOUND": "C=CCN1CCC(Oc2ccc(N3C(=S)N(c4cnc(C#N)c(C)c4)C(=O)C34CCC4)cn2)CC1", "DISPLAY_UNIT": "%", "Emax": 99.7}
{"COMPOUND": "N#Cc1ncc(N2C(=O)C3(CCC3)N(c3ccc(OCCN4CC5(COC5)C4)cc3)C2=S)cc1C(F)(F)F", "DISPLAY_UNIT": "%", "Emax": 97.6}
{"COMPOUND": "CN1C2CCC1C(F)C(Oc1ccc(N3C(=S)N(c4cnc(C#N)c(C(F)(F)F)c4)C(=O)C34CCC4)cc1)C2 (stereo not drawn)", "DISPLAY_UNIT": "%", "Emax": 101}
{"COMPOUND": "Cn1cc2cc(N3C(=S)N(c4cnc(C#N)c(C(F)(F)F)c4)C(=O)C34CCC4)ccc2n1", "DISPLAY_UNIT": "%", "Emax": 101}
{"COMPOUND": "Cc1cc(N2C(=O)C3(CCC3)N(c3ccc(OC4CCN(CCF)CC4)nc3)C2=S)cnc1C#N", "DISPLAY_UNIT": "%", "Emax": 100}
{"COMPOUND": "COCCn1cc2cc(N3C(=S)N(c4cnc(C#N)c(Cl)c4)C(=O)C34CCC4)ccc2n1", "DISPLAY_UNIT": "%", "Emax": 100}
{"COMPOUND": "CN1CC[C@@H](Oc2ccc(N3C(=S)N(c4cnc(C#N)c(C(F)(F)F)c4)C(=O)C34CCC4)cc2)C1", "DISPLAY_UNIT": "%", "Emax": 97.5}
{"COMPOUND": "COCCn1cc2ccc(N3C(=S)N(c4cnc(C#N)c(C(F)(F)F)c4)C(=O)C34CCC4)cc2n1", "DISPLAY_UNIT": "%", "Emax": 101}
{"COMPOUND": "N#Cc1ncc(N2C(=O)C3(CCC3)N(c3ccc4nn(CCO)cc4c3)C2=S)cc1Cl", "DISPLAY_UNIT": "%", "Emax": 99.2}
{"COMPOUND": "CC(C)(C)CCN1CCC(Oc2ccc(N3C(=S)N(c4cnc(C#N)c(C(F)(F)F)c4)C(=O)C34CCC4)cc2)CC1", "DISPLAY_UNIT": "%", "Emax": 89.7}
{"COMPOUND": "CNC(=O)Cc1ccc(N2C(=S)N(c3cnc(C#N)c(C)c3)C(=O)C23CCC3)cc1", "DISPLAY_UNIT": "%", "Emax": 96}
{"COMPOUND": "COCCn1cc2cc(N3C(=S)N(c4cnc(C#N)c(OC)c4)C(=O)C34CCC4)ccc2n1", "DISPLAY_UNIT": "%", "Emax": 101}
{"COMPOUND": "N#CCN1CCC(Oc2ccc(N3C(=S)N(c4cnc(C#N)c(Cl)c4)C(=O)C34CCC4)cn2)CC1", "DISPLAY_UNIT": "%", "Emax": 99.3}
{"COMPOUND": "COCCn1ncc2ccc(N3C(=S)N(c4cnc(C#N)c(C(F)(F)F)c4)C(=O)C34CCC4)cc21", "DISPLAY_UNIT": "%", "Emax": 101}
{"COMPOUND": "N#Cc1ncc(N2C(=O)C3(CCC3)N(c3ccc(OC4CCNC5(CCC5)C4)cc3)C2=S)cc1C(F)(F)F (racemic)", "DISPLAY_UNIT": "%", "Emax": 104}
{"COMPOUND": "CN1CC2(CC(Oc3ccc(N4C(=S)N(c5cnc(C#N)c(C(F)(F)F)c5)C(=O)C45CCC5)cc3)C2)C1", "DISPLAY_UNIT": "%", "Emax": 99.9}
